Just for reference, ChEMBL document CHEMBL1201862 is where these values come from.

- System: KM12
- assay: NCI tumour cell line growth inhibition, 48 h
Active and inactive are the calls of the source. Cut-off read from the data, not from the text of the source: active = GI50 up to about 1.1 µM and inactive = higher.
observed property: GI50

Exercise: With KM12 as the test system, provide measured GI50 for this compound: CN(C)CCCNc1ncnc2c1ncn2C1OC(CO)C(O)C1O (stereo unspecified)
Solution: > 100 µM (inactive)

Exercise: Report GI50 from KM12 testing of C=CCNC(NCC=C)=C(C(Cl)=C(Cl)Cl)[N+](=O)[O-]
Solution: 65.5 µM (inactive)

Exercise: Find the measured GI50 of CNc1ccc([S+]([O-])Nc2ccc(OC)cc2)cc1 (stereo unspecified) with KM12 as test system.
Solution: 3.86 µM (inactive)

Exercise: Enter measured GI50, system KM12, for the compound shown: COC(=O)CSc1[nH]c2nc(C)nc(Nc3ccccc3)c2c1C#N
Solution: > 10 µM (inactive)

Exercise: Param request: GI50 | system KM12 | item CC(C)N(C(=O)C12C3C4C5(C(=O)O)C(C1C35I)C42C(=O)O)C(C)C (stereo unspecified)
Solution: > 100 µM (inactive)

Exercise: // fetch GI50; item: Cc1ccc(C(=O)/C=C(\O)C(=O)NC23CC4CC(CC(C4)C2)C3)cc1 ; system: KM12
Solution: > 10 µM (inactive)

---

- System: DMS-114
- assay: NCI tumour cell line growth inhibition, 48 h
The source made the active and inactive calls. Cut-off read from the data, not from the text of the source: active = GI50 up to about 1.1 µM and inactive = higher.
Please state which outcome applies, choosing from 1 = active, -1 = inactive

Exercise: Assay outcome for Cc1ccc(/C=C2\CCCCC2=O)cc1 : what was it?
Solution: -1

Exercise: Could you check what this test reported for CCC1(OC(=O)CN2CCN(CCO)CC2)C(=O)OCc2c1cc1n(c2=O)Cc2cc3ccccc3nc2-1 (stereo not drawn) ?
Solution: 1

Exercise: Which outcome did this test record for the molecule COC(=O)c1nn(C(=N)c2ccc(Cl)cc2)c2c1CCCCC2 ?
Solution: -1

Exercise: Which outcome did this test record for the molecule Cc1cc2c(cn1)C(=O)OCC2 ?
Solution: -1

Exercise: GET /call?item= COc1ccc(Cc2c3cc(OC)c(OC)cc3cc[n+]2C)cc1 returns the recorded outcome of this test.
Solution: -1

Exercise: Query: recorded result category for O=C(O)[C@@H](NS(=O)(=O)c1ccc(F)cc1)c1ccccc1 in this test
Solution: -1

Exercise: Answer briefly: the call reported for COC(=O)C(=O)C(C(=O)C(=O)Nc1cc([N+](=O)[O-])ccc1C#N)c1nc2ccccc2nc1O (stereo not drawn) in this assay.
Solution: -1

Exercise: Which result was noted for this molecule in the test: C=C=CC(NC(=O)c1ccccc1)(C(=O)O)C(F)(F)F (stereo not drawn)
Solution: -1

---

For each record, write down the corresponding GI50.
- System: SK-MEL-2
- assay: NCI tumour cell line growth inhibition, 48 h
Activity calls are given as the source filed them. Rule as the data show it: active = GI50 up to about 1.1 µM and inactive = higher.

Exercise: Name the recorded GI50 of the compound listed here: CC(C)(C)OC(=O)n1cc(C2CNC(=O)C23CCC(=O)N3Cc2ccccc2)c2ccccc21 (stereo not given)
Solution: 17.2 µM (inactive)

Exercise: Identify measured GI50 associated with O=[N+]([O-])c1cc(Cl)c(Cl)cc1[N+](=O)[O-]
Solution: 2.44 µM (inactive)

Exercise: Let me know recorded GI50 for COC(=O)NNC(=O)OC.COC(=O)Nc1ccccc1NC(=O)OC.COC(=O)Oc1nn(C(=O)OC)c(=O)c2ccccc12 , thanks.
Solution: > 100 µM (inactive)

Exercise: Supply GI50 value. Item: O=C(/C=C/c1ccc([N+](=O)[O-])cc1)c1ccc(NCc2nc3ccccc3[nH]2)cc1
Solution: 14.9 µM (inactive)

Exercise: Provide one value: measured GI50 of CC(/C=C/c1ccccc1)=N\NC(=S)N/N=C(C)/C=C/c1ccccc1
Solution: 10.9 µM (inactive)

---

- Tested on: SF-268
- assay: NCI tumour cell line growth inhibition, 48 h
Active and inactive are the calls of the source. No stated cut-off is given here; in the data, active = GI50 up to about 1.1 µM and inactive = higher.
Assignment: determine reported GI50 for the given compounds.

Exercise: Input Cn1c2ccccc2n2c3ccccc3c(=O)c(C#N)c12 , output reported GI50.
Solution: 10.4 µM (inactive)

Exercise: Please list GI50 recorded for the compound CCN(CC)Cc1ccc(C(=S)Nc2ccc(Cl)cc2)s1
Solution: 11.3 µM (inactive)

Exercise: Report GI50 for CC(NC(=O)C(NC(=O)C(NC(=O)C(F)(F)F)C(C)C)C(C)C)C(=O)Oc1c(Cl)c(Cl)c(Cl)c(Cl)c1Cl (stereo not given)
Solution: > 100 µM (inactive)

Exercise: State its GI50: CCOP(=O)(O)C(Nc1ccc(/N=N/c2ccccc2)cc1)c1ccc(C(Nc2ccc(/N=N/c3ccccc3)cc2)P(=O)(O)OCC)cc1 (stereo not given)
Solution: 20.4 µM (inactive)

Exercise: Specify measured GI50 for CN(/N=C/c1ccnc2ccccc12)c1ccc(Cl)cc1[N+](=O)[O-] .
Solution: 80 µM (inactive)

Exercise: Read the entry CC(C)(C)OC(=O)n1cc(C2CNC(=O)C23CCC(=O)N3Cc2ccccc2)c2ccccc21 (stereo not given) and write its reported GI50.
Solution: 31.6 µM (inactive)

Exercise: Note down GI50 recorded for COc1cccc(/C=N/n2c(-c3ccccc3)n[nH]c2=O)c1
Solution: 17.5 µM (inactive)

Exercise: For the compound Clc1ccc(C(n2cc(Br)cn2)n2cc(Br)cn2)cc1 , give its measured GI50 value.
Solution: 16.4 µM (inactive)

Exercise: Check the records and state GI50 for O=Cc1cn(CCCCCn2cc(C=O)c3ccccc32)c2ccccc12
Solution: 16.7 µM (inactive)

Exercise: Provide one value: measured GI50 of O=c1c2ccccc2c2nc3ccccc3nc2n1C1CCCCC1
Solution: > 100 µM (inactive)

---

- Test system: OVCAR-4
- assay: NCI tumour cell line growth inhibition, 48 h
Calls of active or inactive are those of the source. Rule as the data show it: active = GI50 up to about 1.1 µM and inactive = higher. Non-standard residues stand in square brackets, D forms with d. Residues, ends and D or L forms follow the SMILES beside them. ξ: configuration not given here. *: point of attachment. Cbz = O=C(OCc1ccccc1)*; ξK = NCCCCC(N)C(=O)O
# output must be one of active, inactive

Exercise: Short answer needed: outcome of this test for O=C1/C(=C/c2ccccc2)CN(C(=O)CCN2CCCC2)C/C1=C\c1ccccc1 ?
Solution: inactive

Exercise: Recorded test outcome, item COc1ccc2ccccc2c1CN1CCOCCOCCN(Cc2c(OC)ccc3ccccc23)CCOCCOCC1
Solution: inactive

Exercise: Per the assay record, what outcome was assigned to NCCCCC(NC(=O)OCc1ccccc1)C(=O)NCC(N)=O (stereo not given) (Cbz-[ξK]-Gly-NH2) ?
Solution: inactive

Exercise: // param item: O=c1[nH]/c(=C/c2cccs2)c(=O)[nH]/c1=C/c1ccc(OCc2ccccc2)cn1 ; yields the recorded call
Solution: active

Exercise: Query: recorded result category for C=CC(=O)NCCC(=O)OCn1cc(F)c(=O)[nH]c1=O in this test
Solution: active

---

- Test system: SF-539
- assay: NCI tumour cell line growth inhibition, 48 h
The source made the active and inactive calls. No stated cut-off is given here; in the data, active = GI50 up to about 1.1 µM and inactive = higher.
Pick one: active, inactive

Exercise: For Cc1c2c(n(CCc3ccc(Cl)cc3)c1C)NN=C(C#N)S2(=O)=O , which call appears in the assay record?
Solution: inactive

Exercise: Record request — test call for CCOC(=O)C1CCCCN1CCc1c[nH]c2ccccc12 (centres undefined)
Solution: inactive

Exercise: Tell me the assay call for COc1ccc2c(c1)[n+]([O-])c(/C(C)=N/NC(=O)CC#N)c[n+]2[O-] please.
Solution: inactive

Exercise: Recorded call for COc1cc(/C=C/c2cc(=O)cc(/C=C/c3ccc(O)c(OC)c3)o2)ccc1O ?
Solution: inactive

Exercise: In this assay, the call recorded for COc1cc2c(cc1OCCCN1CCOCC1)N=C[C@@H]1CCCN1C2=O was what?
Solution: inactive

Exercise: For Cc1n[nH]c(=O)n1-c1cccnc1 , which call appears in the assay record?
Solution: inactive

Exercise: Answer briefly: the call reported for Cc1c(NC(=O)c2cc([N+](=O)[O-])cc([N+](=O)[O-])c2)c(=O)n(-c2ccccc2)n1C in this assay.
Solution: inactive

Exercise: What did the test return for COC(=O)c1nn(C(=N)c2ccc(Cl)cc2)c2c1CCCCC2 ?
Solution: inactive

Exercise: Which outcome did this test record for the compound CC(C)[C@@H]1CC[C@@H](C)C[C@H]1OC(=O)/C=C1/C2C=CC(O2)C1C(=O)O[C@@H]1C[C@H](C)CC[C@H]1C(C)C (some centres undefined) ?
Solution: inactive

Exercise: Hi team, can someone confirm the assay call for COC(=O)/C=C/c1ccc(OP(=O)(O)O)c(OC)c1 ?
Solution: inactive

Exercise: Recorded test outcome, item Cc1c2n(c(=O)[nH]c1=O)C1OC(CO)C(N=[N+]=[N-])C1O2 (centres undefined)
Solution: inactive

Exercise: Which result was noted for this compound in the test: CC(C)(Cc1ccccc1)N1C(=O)N1C(C)(C)Cc1ccccc1
Solution: inactive

Exercise: Test call for this compound, please: CC(=O)NC1C(OCc2ccccc2)OC(CO)C(O)C1OC(C)C(=O)N[C@@H](C)C(=O)N[C@H](CCC(=O)NCCNCCNc1c2ccccc2nc2cccc([N+](=O)[O-])c12)C(N)=O (some centres undefined)
Solution: active

Exercise: Per the records of this test, what outcome belongs to COC(=O)C1=C(OC(=O)/C(=C/c2ccccc2)c2ccc(OC)cc2)C(C(=O)OC)[C@@]2(O)[C@@H](C(=O)OC)[C@H](C)C[C@@H]1[C@@H]2C(=O)OC (some centres undefined) ?
Solution: inactive

Exercise: Would you mind telling me which call this test gave C=C1C(=O)OC2/C=C(\C)C(OC(C)=O)C3OC3C(C)(O)CC(OC(=O)/C(C)=C/C)C12 (centres undefined) ?
Solution: inactive

Exercise: # fetch the recorded call for Cc1nn(C(=O)c2ccc(Cl)cc2)c2c1C(c1ccc([N+](=O)[O-])cc1)SC(=N)N2 (centres undefined) here
Solution: inactive

Exercise: Per the records of this test, what outcome belongs to O=C(O)[C@@H](NS(=O)(=O)c1ccc(F)cc1)c1ccccc1 ?
Solution: inactive

Exercise: Recorded call for CCOC(=O)CC1c2ccc(O)cc2OC(=O)C1c1ccc(N)cc1 (centres undefined) ?
Solution: inactive

Exercise: How was COc1cc2c(cc1OC)-c1[nH]c3ccc(C#N)cc3c1CC(=O)N2 classified in this test?
Solution: active

Exercise: Recorded test outcome, item CCC(=S)N(C)O
Solution: inactive

Exercise: Tell me the assay call for O=c1cc(CO)oc2c3c(cc(O)c12)OCC(COC1OC(CO)C(O)C(O)C1O)=CC3 (centres undefined) please.
Solution: inactive

Exercise: What outcome does the record of this test show for COc1cc([C@@H]2c3cc4c(cc3[C@@H](c3c(O)cc(O)c5c3O[C@H](c3ccc(O)c(O)c3)[C@H](OC(=O)c3cc(O)c(O)c(O)c3)C5)[C@H]3COC(=O)[C@H]23)OCO4)cc(OC)c1O ?
Solution: inactive

Exercise: // outcome(item) with item = CC(C)(C)C(=O)CP(=O)(O)O
Solution: inactive

Exercise: Which outcome was entered for the compound CCCCCc1cc2cc3c(c(O)c2c(=O)[nH]1)C1(CCC3)C(=O)c2c(O)ccc(O)c2C1=O in this test?
Solution: inactive

Exercise: Tell me the assay call for CSC1=NN(C(C)=O)C(C(OC(C)=O)C(OC(C)=O)C(OC(C)=O)C(COC(C)=O)OC(C)=O)S1 (centres undefined) please.
Solution: inactive

Exercise: What outcome does the record of this test show for O=C(CC(=O)N1N=C(N(c2ccccc2)c2ccccc2)CC1c1ccccc1)Nc1ccccc1 (centres undefined) ?
Solution: inactive

Exercise: Call for entry CCc1nc(N)nc(N)c1-c1ccc(Cl)c([N+]#N)c1 :
Solution: inactive

Exercise: What classification did COc1cc(Cl)c2c3c(c(C(=O)c4ccccc4)oc13)CCC2 end up with in this test?
Solution: inactive

Exercise: Test call, this compound: OCCCCCCCCCCCOc1ccc(C2OCC3(CC=CCC3)CO2)cc1 (centres undefined)
Solution: inactive

Exercise: Tell me the recorded outcome of this test for CNc1cc(Cl)ccc1C(=O)N1CCC[C@H]1CO .
Solution: inactive

Exercise: Status in this test for Cc1ccc(SCC(OCn2cnc3c(Cl)nc(N)nc32)[C@H](C)F)cc1 (some centres undefined) ?
Solution: inactive

Exercise: Give the logged outcome of this assay for the following compound: O=C(/C=C/c1ccc([N+](=O)[O-])cc1)c1ccc(NCc2nc3ccccc3[nH]2)cc1
Solution: inactive

Exercise: Dear colleague, could you share the recorded outcome for CC1(C)C2CCC(CN)(C2)C1N (centres undefined) when you have a moment?
Solution: inactive

Exercise: Could you check what this test reported for COc1ccc2c(c1)/C(=C\c1cccc(/C=C3/C(=O)Nc4ccc(OC)cc43)n1)C(=O)N2 ?
Solution: inactive

Exercise: Kindly provide the recorded test outcome for the following compound: C=CCn1c(=O)n(CC=C)c(=O)n(CC=C)c1=O
Solution: inactive

Exercise: For CC(C)=CC(=O)Cc1nc2ccccc2[nH]c1=O , which call appears in the assay record?
Solution: inactive

Exercise: Entry Nc1ccccc1-n1c2c(c3ccccc3c1=O)C(=O)c1ccccc1-2 : call = ?
Solution: inactive

Exercise: Each compound tested received a call. Report the one for C[C@@H]1Nc2cc(NC(=O)OCCF)nc(N)c2N=C1c1ccccc1 .
Solution: active

Exercise: Could you check what this test reported for CCOC(=O)C1(Cc2ccccc2)Cc2ccccc2C1=O (centres undefined) ?
Solution: inactive
